Test: Pharmacokinetic study of 15 LJF components in plasma of RSV-infected mice after oral LJF extract (UHPLC-QQQ MS)
Assay type: in vivo
Conditions: RSV mice plasma, oral LJF extract 12.0 g/kg, n = 6
Protocol: The LJF (12.0 g) were pulverized and soaked in pure water at a solid: liquid ratio of 1:200 and followed by extraction for 30 min. Then, the LJF extract was obtained by filtration, centrifugation (5000 rpm, 10 min) and concentration. […] The MS/MS analysis was performed by Agilent 6470 Triple Quadrupole LC/MS (Santa Clara, CA, USA) with an ESI source. […] The acquired data were processed and analyzed by Mass Hunter Workstation quantitative analysis. […]
OUTCOME_MEASURE: AUC(0–t)
Answer with the figure and its unit, nothing else.

Quick one: AUC(0–t) for O=C(C=Cc1ccc(O)c(O)c1)OC1CC(O)(C(=O)O)CC(O)C1OC(=O)C=Cc1ccc(O)c(O)c1 (stereo not shown) ?
1100 ng·h/mL

----------
Assay: Pharmacokinetic study of 15 LJF components in plasma of RSV-infected mice after oral LJF extract (UHPLC-QQQ MS)
Format: in vivo
Conditions: mouse, in vivo, po, 12 g/kg, RSV mice plasma, oral LJF extract 12.0 g/kg, n = 6; read-out: AUC(0–∞)
OUTCOME_MEASURE: AUC(0-inf) (ng·h/mL)
Give bare numbers, in ng·h/mL.

Fill blank: measured AUC(0-inf) of the compound `C[C@@H]1O[C@@H](OC[C@H]2O[C@@H](Oc3c(-c4ccc(O)c(O)c4)oc4cc(O)cc(O)c4c3=O)[C@H](O)[C@@H](O)[C@@H]2O)[C@H](O)[C@H](O)[C@H]1O` is ____.
34.3

----------
Test: Pharmacokinetic study of 15 LJF components in plasma of RSV-infected mice after oral LJF extract (UHPLC-QQQ MS)
Format: in vivo
Conditions: mouse, in vivo; RSV mice plasma, oral LJF extract 12.0 g/kg, n = 6; read-out: AUC(0–t)
OUTCOME_MEASURE: AUC(0-t) (ng·h/mL)
Give bare numbers, in ng·h/mL.

{"MOLECULE": "O=c1c(O[C@@H]2O[C@H](CO)[C@@H](O)[C@H](O)[C@H]2O)c(-c2ccc(O)c(O)c2)oc2cc(O)cc(O)c12", "MEASUREMENT_UNIT": "ng·h/mL", "AUC(0-t)": 26.5}

In the following, a different molecule is considered.
Name the recorded AUC(0-t) for O=c1cc(-c2ccc(O)c(O)c2)oc2cc(O[C@@H]3O[C@H](CO)[C@@H](O)[C@H](O)[C@H]3O)cc(O)c12 [Luteoloside] .
15.8

----------
Assay: Pharmacokinetic study of 15 LJF components in plasma of RSV-infected mice after oral LJF extract (UHPLC-QQQ MS)
Assay type: in vivo
Settings: RSV mice plasma, oral LJF extract 12.0 g/kg
OUTCOME_MEASURE: shape of the concentration–time curve

{"MOLECULE": "C=C[C@H]1[C@H](O[C@@H]2O[C@H](CO)[C@@H](O)[C@H](O)[C@H]2O)OC=C2C(=O)OC(O)C[C@H]21 (stereo partly drawn) [Secologanic acid]", "shape of the concentration–time curve": "double or multiple peaks"}
{"MOLECULE": "C=C[C@H]1[C@H](O[C@@H]2O[C@H](CO)[C@@H](O)[C@H](O)[C@H]2O)OC=C2C(=O)OCC[C@]21O [Swertiamarin]", "shape of the concentration–time curve": "double or multiple peaks"}
{"MOLECULE": "O=C(/C=C/c1ccc(O)c(O)c1)O[C@@H]1C[C@](O)(C(=O)O)C[C@@H](O)[C@H]1O [Chlorogenic acid]", "shape of the concentration–time curve": "double or multiple peaks"}
{"MOLECULE": "C=C[C@H]1[C@H](O[C@@H]2O[C@H](CO)[C@@H](O)[C@H](O)[C@H]2O)OC=C(C(=O)OC)[C@H]1CC(=O)O [Secoxyloganin]", "shape of the concentration–time curve": "double or multiple peaks"}
{"MOLECULE": "O=c1cc(-c2ccc(O)c(O)c2)oc2cc(O[C@@H]3O[C@H](CO)[C@@H](O)[C@H](O)[C@H]3O)cc(O)c12 [Luteoloside]", "shape of the concentration–time curve": "double or multiple peaks"}

Lab note: next molecule to report on.
Requested read-out: shape of the concentration–time curve. Entry: O=C(C=Cc1ccc(O)c(O)c1)OC1CC(O)(C(=O)O)CC(OC(=O)C=Cc2ccc(O)c(O)c2)C1O (stereo not drawn) [Isochlorogenic acid A]
double or multiple peaks
